Origin of measurements: PubChem BioAssay (EPA / NIEHS)

measurement_protocol: BSK_CASM3C_SRB: Viability Assessment in the BioMAP Diversity Plus: CASM3C Assay (AID 2283050);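 further: total protein by SRB staining as cytotoxicity measure in parallel cultures; cells exposed to compound for 24 h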
condition_parameters: primary human coronary artery smooth muscle cells
The source made the active and inactive calls. How the source made its calls: active means hit-call score of the fitted dose curve at least 0.9, where 1 is the maximum; inactive means score below 0.9.

[
  {
    "input_smiles": "O=C(NS(=O)(=O)/C=C/c1cccs1)c1ccc(F)cc1Br",
    "outcome": "inactive"
  },
  {
    "input_smiles": "NC1CCCCC1",
    "outcome": "inactive"
  },
  {
    "input_smiles": "CCCCCCCCCC[N+](C)(C)[O-]",
    "outcome": "inactive"
  }
]

----------
measurement_protocol: ACEA_ER_AUC_viability: ACEA Biosciences xCELLigence Real-Time Cell Analysis on Estrogen Receptor Agonism for Viability (AID 2283782);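 further: continuous compound exposure with impedance area under curve over 80 h; hit means loss of impedance signal meaning reduced cell growth or viability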
Results filed as inconclusive are left out. Active and inactive are the calls of the source. How the source made its calls: active means hit-call score of the fitted dose curve at least 0.9, where 1 is the maximum; inconclusive means response in the unintended direction; inactive means score below 0.9.
observable: AC50

Some molecules with recorded AC50:
[
  {
    "molecule": "Cc1c(C)c2c(c(C)c1O)CCC(C)(COc1ccc(CC3SC(=O)NC3=O)cc1)O2 (stereo not given)",
    "AC50": "82.9 µM (active)"
  },
  {
    "molecule": "C=CCc1ccc(OC)c(OC)c1",
    "AC50": "inactive"
  },
  {
    "molecule": "CN(C)C(=O)NC1(c2ccccc2)CCN(CCC[C@]2(c3ccc(Cl)c(Cl)c3)CCCN(C(=O)c3ccccc3)C2)CC1",
    "AC50": "14.6 µM (active)"
  },
  {
    "molecule": "Oc1ccccc1O",
    "AC50": "90.5 µM (active)"
  }
]

Please look at the following molecule next.
Query: Which AC50 reading was recorded for the molecule `O=C1CCCCC1` ?
Result: inactive

----------
measurement_protocol: ATG_TGFb_CIS: Attagene CIS-FACTORIAL HepG2 Assay for human Transforming Growth Factor (TGF) (AID 2282967)
condition_parameters: HepG2 Attagene CIS TGFb reporter, mRNA transcription; actives raise or lower the signal
Activity calls are given as the source filed them. Rule for the calls: active = hit-call score of the fitted dose curve at least 0.9, where 1 is the maximum; inactive = score below 0.9.
Answer with one of the outcomes given here: t = active, f = inactive

Example entries and their recorded answers appear below.
[
  {
    "molecule": "Cc1c(C)c2c(c(C)c1O)CCC(C)(COc1ccc(CC3SC(=O)NC3=O)cc1)O2 (stereo not given)",
    "label_value": "f"
  },
  {
    "molecule": "CN(C)C(=O)NC1(c2ccccc2)CCN(CCC[C@]2(c3ccc(Cl)c(Cl)c3)CCCN(C(=O)c3ccccc3)C2)CC1",
    "label_value": "f"
  },
  {
    "molecule": "CCCCCCCCCCCCCCOS(=O)(=O)O",
    "label_value": "t"
  },
  {
    "molecule": "C/C=C/c1ccc(OC)cc1",
    "label_value": "f"
  },
  {
    "molecule": "Nc1nc(Cl)nc2c1ncn2[C@H]1C[C@H](O)[C@@H](CO)O1",
    "label_value": "f"
  },
  {
    "molecule": "COc1ccc(OC(F)(F)F)cc1CN[C@H]1CCCN[C@H]1c1ccccc1",
    "label_value": "f"
  }
]

Query: Test call for this molecule, please: CCC(C)N(C)C(=O)c1cc2ccccc2c(-c2ccccc2Cl)n1 (stereo not given)
Result: f

Query: Another: `CSc1ccc(Oc2ccc(S(N)(=O)=O)cc2CN(C)C)cc1C`
Result: f

Query: Another: `CC(=O)S[C@H](C(=O)N[C@H]1Cc2ccccc2[C@H]2CCC[C@@H](C(=O)O)N2C1=O)C(C)C`
Result: f

Query: Another: `CCCC[C@H]1CN(CC2CCOCC2)C(=O)OC12CCN(C1(C)CCN(C(=O)c3c(C)ncnc3C)CC1)CC2`
Result: f

Query: Another: `Cc1ccc(-c2cc(C(F)(F)F)nn2-c2ccc(S(N)(=O)=O)cc2)cc1`
Result: f

Query: Another: `OCC(CO)n1cnc(-c2ccc(F)cc2)c1-c1ccnc(Oc2ccccc2)n1`
Result: f

Query: Another: `Nc1nc(=S)c2[nH]cnc2[nH]1`
Result: f

Query: Another: `O=C1NC(=O)C(c2ccccc2)(c2ccccc2)N1`
Result: f

Query: Another: `O=Cc1ccccc1C=O`
Result: f

Query: Another: `CC(=O)OCC(COC(C)=O)OC(C)=O`
Result: f

Query: Another: CCCCCCC(CCCCCCCCCCC(=O)OCC(COC(C)=O)OC(C)=O)OC(C)=O (stereo not given)
Result: f

----------
Read-out: Peroxisomal acyl-coenzyme A oxidase 1 (ACOX1) gene, ACOX1 (gene 51)
measurement_protocol: LTEA_HepaRG_ACOX1: Life Technologies and Expression Analysis (LTEA) Assay for Peroxisomal acyl-coenzyme A oxidase 1 (ACOX1) gene using HepaRG (AID 2283467)
condition_parameters: mRNA level, 48 h; actives raise or lower the signal
Activity calls are given as the source filed them. The calls were made as follows: active = hit-call score of the fitted dose curve at least 0.9, where 1 is the maximum; inactive = score below 0.9.
Answer with one of the outcomes given here: y (active), n (inactive)

[
  {
    "input_smiles": "Cc1ccc(-c2cc(C(F)(F)F)nn2-c2ccc(S(N)(=O)=O)cc2)cc1",
    "label_value": "y"
  },
  {
    "input_smiles": "CC(=O)[C@@]1(O)CC[C@H]2[C@@H]3CCC4=CC(=O)CC[C@]4(C)[C@H]3CC[C@@]21C",
    "label_value": "n"
  }
]

Query: Test call for this compound, please: `CCCCCCCCCCCCCCCCO`
Result: n

Query: Another: `O=[Si]=O`
Result: n

Query: Another: `Cc1occc(=O)c1O`
Result: n

Query: Another: `CCCCCCCCCCCCCCOS(=O)(=O)O`
Result: n

----------
Read-out: solute carrier (SLC22A1), SLC22A1 (gene 6580)
measurement_protocol: LTEA_HepaRG_SLC22A1: Life Technologies and Expression Analysis (LTEA) Assay for solute carrier (SLC22A1) using HepaRG (AID 2283524);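 on AC50: differentiated human HepaRG liver cells in serum-free induction medium; TaqMan qRT-PCR normalized to ACTB GAPDH and POLR2A housekeeping genes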
condition_parameters: mRNA level, 48 h; actives raise or lower the signal
Calls of active or inactive are those of the source. The calls were made as follows: active = hit-call score of the fitted dose curve at least 0.9, where 1 is the maximum; inactive = score below 0.9.
observable: AC50

Some compounds with recorded AC50:
[
  {
    "compound": "Oc1ccc(O)cc1",
    "AC50": "inactive"
  },
  {
    "compound": "N[C@@H](Cc1c[nH]c2ccccc12)C(=O)O",
    "AC50": "inactive"
  },
  {
    "compound": "CC(C)NCC(O)c1ccc(O)c(O)c1 (stereo not given)",
    "AC50": "209 nM (active)"
  },
  {
    "compound": "C/C=C/c1ccc(OC)cc1",
    "AC50": "inactive"
  },
  {
    "compound": "NC=O",
    "AC50": "inactive"
  },
  {
    "compound": "CCCC(=O)O",
    "AC50": "inactive"
  }
]

Query: Which AC50 reading was recorded for the compound `CO[C@@H]1COCC[C@@H]1N[C@@H]1CC[C@@](C(=O)N2CCc3ncc(C(F)(F)F)cc3C2)(C(C)C)C1` ?
Result: inactive

Query: Another: `OCC(CO)n1cnc(-c2ccc(F)cc2)c1-c1ccnc(Oc2ccccc2)n1`
Result: inactive

Query: Another: `O=C(Oc1ccccc1)c1cccc(C(=O)Oc2ccccc2)c1`
Result: inactive

Query: Another: `CCCCCCC(C=O)=Cc1ccccc1`
Result: inactive

Query: Another: `CN(C)CCCN(C)CCCN(C)C`
Result: inactive

Query: Another: `CC(C)(O)c1ccc(CNC(=O)c2cccnc2Oc2ccc(F)cc2)cc1`
Result: inactive

Query: Another: `CCCCCCCCCCCCCCOS(=O)(=O)O`
Result: 80600 nM (active)

Query: Another: CC(=O)OC1CC(C)OC(C)O1 (stereo not given)
Result: inactive

Query: Another: `CSc1ccc(Oc2ccc(S(N)(=O)=O)cc2CN(C)C)cc1C`
Result: inactive

Query: Another: `CC(=O)S[C@H](C(=O)N[C@H]1Cc2ccccc2[C@H]2CCC[C@@H](C(=O)O)N2C1=O)C(C)C`
Result: inactive

Query: Another: CCCCCCC(CCCCCCCCCCC(=O)OCC(COC(C)=O)OC(C)=O)OC(C)=O (stereo not given)
Result: inactive

Query: Another: `CCCCOC(=O)CCCCC(=O)OCCCC`
Result: 243 nM (active)

Query: Another: `CC(=O)OCC(COC(C)=O)OC(C)=O`
Result: inactive

Query: Another: `O=C(O)CC(O)(CC(=O)O)C(=O)O`
Result: inactive

----------
measurement_protocol: APR_HepG2_MitoticArrest_72hr: Apredica 72-hour HepG2 Assay for Mitotic Arrest (AID 2282918)
condition_parameters: high-content imaging, actives raise or lower the signal
The source made the active and inactive calls. How the source made its calls: active means hit-call score of the fitted dose curve at least 0.9, where 1 is the maximum; inactive means score below 0.9.
observable: AC50

Some compounds with recorded AC50:
[
  {
    "compound": "O=C(O)c1[nH]n(-c2ccc(S(=O)(=O)O)cc2)c(=O)c1N=Nc1ccc(S(=O)(=O)O)cc1",
    "endpoint_value": "inactive"
  },
  {
    "compound": "O=[Si]=O",
    "endpoint_value": "inactive"
  },
  {
    "compound": "O=C(Oc1ccccc1)c1cccc(C(=O)Oc2ccccc2)c1",
    "endpoint_value": "inactive"
  },
  {
    "compound": "c1ccc2occc2c1",
    "endpoint_value": "inactive"
  }
]

Query: Which AC50 reading was recorded for the compound `COC(=O)[C@H]1[C@H]2C[C@@H]3c4[nH]c5cc(OC)ccc5c4CCN3C[C@H]2C[C@@H](OC(=O)c2cc(OC)c(OC)c(OC)c2)[C@@H]1OC` ?
Result: 16.3 µM (active)

Query: Another: `CN(C)C(=O)NC1(c2ccccc2)CCN(CC[C@@]2(c3ccc(F)c(F)c3)CN(C(=O)c3ccccc3)CCO2)CC1`
Result: 86 µM (active)

Query: Another: CCCCC(CC)CO (centres undefined)
Result: inactive

Query: Another: `O=C1O[C@H]([C@H](O)CO)C(O)=C1O`
Result: inactive

Query: Another: `CSc1ccc(Oc2ccc(S(N)(=O)=O)cc2CN(C)C)cc1C`
Result: inactive

Query: Another: `O=Cc1ccccc1C=O`
Result: inactive

Query: Another: `O=C(NS(=O)(=O)/C=C/c1cccs1)c1ccc(F)cc1Br`
Result: inactive

Query: Another: `O=C(O)CN(CC(=O)O)CC(=O)O`
Result: inactive

Query: Another: `NCCOCCOCCN`
Result: 15.8 µM (active)

Query: Another: `CCN(CC)CCOc1ccc(C(=C(Cl)c2ccccc2)c2ccccc2)cc1`
Result: 11.4 µM (active)

Query: Another: `Cc1cn([C@H]2C=C[C@@H](CO)O2)c(=O)[nH]c1=O`
Result: inactive

Query: Another: `CC(C)(O)c1ccc(CNC(=O)c2cccnc2Oc2ccc(F)cc2)cc1`
Result: inactive

Query: Another: `O=C1c2c(O)cccc2Cc2cccc(O)c21`
Result: inactive

Query: Another: `N[C@@H](Cc1c[nH]c2ccccc12)C(=O)O`
Result: inactive

Query: Another: `CCc1nc(N)nc(N)c1-c1ccc(Cl)cc1`
Result: 110 µM (active)
